Reference for the values: ChEMBL document CHEMBL3351789

biological target: Rho-associated protein kinase 1 (Homo sapiens, UniProt Q13464)
Sequence (Q13464 whole entry): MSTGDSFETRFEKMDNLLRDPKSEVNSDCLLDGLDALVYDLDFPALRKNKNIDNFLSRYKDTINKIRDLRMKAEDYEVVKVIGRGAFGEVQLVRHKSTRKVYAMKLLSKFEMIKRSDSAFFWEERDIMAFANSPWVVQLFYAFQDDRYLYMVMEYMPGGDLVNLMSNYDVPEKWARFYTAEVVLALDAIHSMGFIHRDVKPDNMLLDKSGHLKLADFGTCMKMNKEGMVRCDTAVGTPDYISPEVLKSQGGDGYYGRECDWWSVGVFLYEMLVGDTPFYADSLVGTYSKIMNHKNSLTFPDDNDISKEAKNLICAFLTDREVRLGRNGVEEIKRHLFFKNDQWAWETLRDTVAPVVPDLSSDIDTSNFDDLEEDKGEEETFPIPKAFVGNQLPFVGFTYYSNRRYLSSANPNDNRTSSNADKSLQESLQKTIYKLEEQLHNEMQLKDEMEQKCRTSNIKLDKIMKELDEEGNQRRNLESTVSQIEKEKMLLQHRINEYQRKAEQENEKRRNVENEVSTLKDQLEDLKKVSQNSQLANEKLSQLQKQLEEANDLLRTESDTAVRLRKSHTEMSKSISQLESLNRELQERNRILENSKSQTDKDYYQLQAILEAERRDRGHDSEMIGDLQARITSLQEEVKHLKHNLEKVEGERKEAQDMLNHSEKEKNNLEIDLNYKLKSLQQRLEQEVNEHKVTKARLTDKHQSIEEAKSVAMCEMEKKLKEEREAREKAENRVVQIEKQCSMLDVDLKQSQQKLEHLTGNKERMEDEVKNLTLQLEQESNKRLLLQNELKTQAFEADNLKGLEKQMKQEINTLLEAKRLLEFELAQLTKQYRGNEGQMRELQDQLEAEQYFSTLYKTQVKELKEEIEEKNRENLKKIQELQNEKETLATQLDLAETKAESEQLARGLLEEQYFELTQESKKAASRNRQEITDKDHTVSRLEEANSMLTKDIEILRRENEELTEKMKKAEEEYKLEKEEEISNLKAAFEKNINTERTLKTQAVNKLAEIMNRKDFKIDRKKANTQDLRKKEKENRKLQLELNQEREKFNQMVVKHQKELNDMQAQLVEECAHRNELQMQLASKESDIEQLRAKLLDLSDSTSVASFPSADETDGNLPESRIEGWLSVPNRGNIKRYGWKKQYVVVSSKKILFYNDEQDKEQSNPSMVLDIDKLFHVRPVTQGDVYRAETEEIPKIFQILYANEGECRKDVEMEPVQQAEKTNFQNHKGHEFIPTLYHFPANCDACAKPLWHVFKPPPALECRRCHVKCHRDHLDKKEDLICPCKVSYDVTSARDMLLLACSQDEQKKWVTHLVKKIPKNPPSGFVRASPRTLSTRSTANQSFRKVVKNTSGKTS
pIC50: −log10 of the molar value.
observationType: pIC50

Notebook: COc1ccc(-c2cccc3nc(NC(=O)C4CC4)nn23)cc1 , pIC50 read as < 5.00

###

assay: Metabolic stability in human liver microsomes assessed as compound remaining after 60 mins; type: ADME; details: read-out: Stability
observationType: remaining at 1 h (%)
Answer in %, number only, no unit symbol.

Notebook: O=C(Nc1nc2cccc(-c3ccc(CN4CCS(=O)(=O)CC4)cc3)n2n1)C1CC1 , remaining at 1 h read as 87

###

assay: Metabolic stability in dog liver microsomes assessed as compound remaining after 60 mins; type: ADME, Canis lupus familiaris; conditions: read-out: Stability
observationType: remaining at 1 h (%)
Answer in %, number only, no unit symbol.

Notebook: O=C(Nc1nc2cccc(-c3ccc(CN4CCS(=O)(=O)CC4)cc3)n2n1)C1CC1 [FILGOTINIB] , remaining at 1 h read as 45
